# Type: in vivo
# Details: plasma, po, 50 mg/kg
Observed property: Tmax
Write down the value, and be sure its unit follows.

Q: Which Tmax is listed for COc1cc2[nH]c(C)c(-c3ccc(C(F)(F)F)cc3)c(=O)c2cc1Cl ?
A: 2 h
